Test: reversal of MRP1-mediated doxorubicin resistance, pilot screen, H69AR cells, doxorubicin co-treatment (AID 601)
Conditions: H69AR cells + 2 uM doxorubicin, CellTiter-Glo, 72 h; measured here: viability with 2 uM doxorubicin; at 10 µM; stronger effect = lower value
Decision: viability beneath 90% gives Criterion met; viability meeting or exceeding 90% gives Criterion not met.

Worked set:
MOLECULE	ASSIGNED CLASS
Cc1ccc(-n2nnnc2SCC(=O)c2cc(C)n(CC3CCCO3)c2C)cc1 (stereo unspecified)	Criterion not met
O=C(NCCCN1CCCC1=O)c1cncc(Br)c1	Criterion not met
CN1CCc2nc(SCC(=O)Nc3ccc(F)cc3)c(C#N)cc2C1	Criterion not met
O=C(Nc1ccc(N2CCOCC2)c(F)c1)c1ccncc1	Criterion met
CCOC(=O)C1=C(C)Nc2ncnn2C1c1ccccc1F (stereo unspecified)	Criterion not met

In plain terms, does CCC(Sc1ccc2nnc(-c3ccc(F)cc3)n2n1)C(=O)OC (stereo unspecified) come in under 90% for viability?
Criterion met

In plain terms, does COc1cc(C2=NOC(C(=O)NCc3ccc(F)cc3)C2)cc(OC)c1OC (stereo unspecified) come in under 90% for viability?
Criterion met
